Below, each entry is listed with its recorded growth.
System: 786-0 renal
Experiment: NCI-60 one-dose screen, 48 h (100 = growth as untreated, 0 = no growth, -100 = all killed)
Details: 10 µM unless noted
Compounds without any hit were thinned out: in the full panel of roughly 83,000, 20% have a hit.
Write it as a number; the unit % goes unstated.

# compound, recorded.result
measured = [
    ("O=C(N1c2ccccc2Sc2ccccc21)n1ccc2cccnc21", 77.4),
    ("C=C1CC[C@@H]2[C@]3(C)COC(c4cn[nH]c4-c4ccc(Br)cc4)O[C@@H]3CC[C@@]2(C)[C@@H]1C/C=C1/C(=O)OCC1O (stereo not given in full)", -95.5),
    ("C/C(=N\\N=C1/C(=O)Nc2ccc(Cl)cc21)c1ccc2c(c1)Nc1ccccc1S2", -70),
    ("S=C(Nc1ccc(OCc2nc3ccccc3[nH]2)cc1)NC1CCCCC1", 93),
    ("Cc1ccc(-c2nc(Nc3ccccc3S(N)(=O)=O)c3ccccc3n2)cc1", 32.1),
]

Incoming: Query the reported growth for 786-0 renal; item: `CCCCn1c(O)c(N=Nc2nc(-c3cc4ccccc4oc3=O)cs2)c2cc(Br)ccc21`
Outgoing: 106

Incoming: Query the reported growth for 786-0 renal; item: C=C1CC[C@@H]2[C@]3(C)COC(c4cn[nH]c4-c4cccc(Cl)c4)O[C@@H]3CC[C@@]2(C)[C@@H]1C/C=C1/C(=O)OCC1O (stereo not given in full)
Outgoing: -92.7

Incoming: Query the reported growth for 786-0 renal; item: `O=C1NC(=O)c2c1c1c3cc(Br)ccc3[nH]c1c1oc3ccc(F)cc3c21`
Outgoing: -40.8

Incoming: Query the reported growth for 786-0 renal; item: `CC(C)CCNC(=O)N/C(N)=N/c1nc2ccccc2s1`
Outgoing: 80.9

Incoming: Query the reported growth for 786-0 renal; item: `S=C(Nc1ccccc1)Nc1ccc(OCc2nc3ccccc3[nH]2)cc1`
Outgoing: 31.8

###

System: RXF 393 renal
Assay: NCI-60 one-dose screen, 48 h (100 = growth as untreated, 0 = no growth, -100 = all killed)
Settings: 10 µM unless noted
About 83,000 compounds went through this panel and 20% of them were active in at least one assay; those are over-represented in the sample as a whole.
Exam item: assign Criterion met to entries whose growth is below 50% and Criterion not met to entries at or above 50%. Note that a value of exactly 50% receives Criterion not met.

Examples from the recorded data:
# compound, label.value
measured = [
    ("O=C(O)c1cccc(-c2ccc(/C=N/NC(=O)c3[nH]c4ccc(Br)cc4c3-c3ccccc3)s2)c1", "Criterion met"),
    ("COc1cc2c(c(OC)c1OC)C(=O)CC(c1cccc(NC(=O)[C@@H](N)CC(C)C)c1)O2 (some centres undefined)", "Criterion not met"),
    ("COc1ccc(NC(=O)Cn2c(/C=C/c3cccc([N+](=O)[O-])c3)nc3ccccc3c2=O)cc1", "Criterion met"),
]

Incoming: growth under 50%? Item: `Nc1nc(-c2ccccc2)c(N=Nc2ccc(Cl)cc2[N+](=O)[O-])s1`
Outgoing: Criterion not met

Incoming: growth under 50%? Item: COC(OC)C1=C(C)OC(N)=C(C#N)C12C(=O)Nc1ccccc12 (centres undefined)
Outgoing: Criterion not met

Incoming: growth under 50%? Item: `CC(C)c1ccc2c(N)c(C(=O)Nc3cccc(C(F)(F)F)c3)sc2n1`
Outgoing: Criterion met

Incoming: growth under 50%? Item: `CCOc1ccc(-c2c(C#N)c(-c3ccc(Cl)cc3)nc3n[nH]c(-c4ccc(Cl)cc4)c23)cc1OC`
Outgoing: Criterion met

Incoming: growth under 50%? Item: `N#Cc1c(-c2cccc(O)c2O)cc(-c2ccc3ccccc3c2)[nH]c1=O`
Outgoing: Criterion met

Incoming: growth under 50%? Item: `Cc1cc2nc3c4ccccc4n(CCNCCN(C)C)c3nc2cc1C`
Outgoing: Criterion met

###

Test system: CCRF-CEM leukemia
Experiment: NCI-60 one-dose screen, 48 h (100 = growth as untreated, 0 = no growth, -100 = all killed)
Details: 10 µM unless noted
This is part of a sample that, as a whole, favours compounds with a hit. Of some 83,000 tested, about 20% had one in any assay.
Below, each entry is listed with its recorded growth.
Write it as a number; the unit % goes unstated.

# molecule, system.name, observable, recorded.result
rows = [
    ("Cc1cc(C)n(-c2ccc3nnc(-c4ccccc4)n3n2)n1", "CCRF-CEM leukemia", "growth", 112),
    ("CC(C)Sc1nc(NCCc2c[nH]c3ccccc23)c(C#N)c(-c2ccc(F)cc2)n1", "CCRF-CEM leukemia", "growth", 11.7),
    ("CCN1CCN(Cc2ccc(C(=O)Nc3cccc(C#Cc4cccc5[nH]nc(N)c45)c3)cc2C(F)(F)F)CC1", "CCRF-CEM leukemia", "growth", 3.6),
]

Incoming: Query the reported growth for CCRF-CEM leukemia; item: `CCN1C(=O)/C(=N\N=C(/C)c2ccc3c(c2)Nc2ccccc2S3)c2cc(Cl)ccc21`
Outgoing: 50.8

Incoming: Query the reported growth for CCRF-CEM leukemia; item: `CCCCCCCCc1ccc(C(=O)Nc2cccc(P(=O)(O)O)c2)cc1`
Outgoing: 79.6

Incoming: Query the reported growth for CCRF-CEM leukemia; item: CN(C)c1nc(NCCNS(=O)(=O)c2ccc(C3=Nc4c(N)nc(N)nc4NC(c4ccccc4)C3)cc2)nc(Nc2ccc(F)cc2)n1 (centres undefined)
Outgoing: 22.2

Incoming: Query the reported growth for CCRF-CEM leukemia; item: `COc1cc2oc(-c3cccc(C(=O)Nc4cccc([N+](=O)[O-])c4)c3)cc(=O)c2c(OC)c1OC`
Outgoing: 84.1

Incoming: Query the reported growth for CCRF-CEM leukemia; item: `N#Cc1c(-c2ccc(Br)cc2)nc2n[nH]c(-c3ccc(Br)cc3)c2c1-c1ccc(C(F)(F)F)cc1`
Outgoing: 13.9

Incoming: Query the reported growth for CCRF-CEM leukemia; item: `CCCCSc1nc(NCCc2c[nH]c3ccccc23)c(C#N)c(-c2ccc(F)cc2)n1`
Outgoing: 36.5

###

System: SF-539 CNS
Assay: NCI-60 one-dose screen, 48 h
Conditions: 10 µM unless noted
The panel holds about 83,000 compounds, 20% with a hit somewhere; the sample as a whole holds those more often. The source made the active and inactive calls. How the source made its calls: active means growth percent below 10; inactive means the rest.
Log the outcome using a class from label 1 = active, label 0 = inactive

# compound, system.name, label.value
rows = [
    ("O=C1Nc2cc(Cl)ccc2/C1=C/c1cccc(OCc2ccccn2)c1", "SF-539 CNS", "label 1"),
    ("CNS(=O)(=O)c1ccc(Nc2ccc(C(F)(F)F)cc2)c(-c2cn(C)cn2)c1", "SF-539 CNS", "label 0"),
    ("Cn1cc(-c2cc3nc(-c4cn(C)c5ncccc45)cc(N)n3n2)c2cc(Cl)ccc21", "SF-539 CNS", "label 1"),
]

Incoming: Please share the test call associated with `O=c1[nH]c2ccccc2cc1CSc1cccc(Nc2nccc(-c3ccc4ccccc4c3)n2)c1` .
Outgoing: label 0

Incoming: Please share the test call associated with COC(=O)/C=C/c1cccc2c1C(=O)NC(C)(c1cc3ccccc3oc1=O)N2 (centres undefined) .
Outgoing: label 0

Incoming: Please share the test call associated with `Cn1cc(-c2nnc(N)nc2-c2c[nH]c3ccccc23)c2cccnc21` .
Outgoing: label 0

Incoming: Please share the test call associated with `COc1ccc(/C=C2\C(=N)N=C(SCc3nc4ccccc4[nH]3)NC2=O)cc1` .
Outgoing: label 0

Incoming: Please share the test call associated with `COc1cc2oc(-c3cccc(C(=O)Nc4ccc(Cl)cc4)c3)cc(=O)c2c(OCCNC(=O)[C@H](CO)NC(=O)OC(C)(C)C)c1OC` .
Outgoing: label 1

Incoming: Please share the test call associated with `CCOc1ccc(C(=O)NC(=S)Nc2ccc(S(N)(=O)=O)cc2)cc1` .
Outgoing: label 0

###

Tested on: HT29 colon
Assay: NCI-60 one-dose screen, 48 h (100 = growth as untreated, 0 = no growth, -100 = all killed)
Conditions: 10 µM unless noted
The panel holds about 83,000 compounds, 20% with a hit somewhere; the sample as a whole holds those more often.
observable: growth (%)
Write it as a number; the unit % goes unstated.

Record excerpt, results attached:
# compound, system.name, observable, recorded.result
records = [
    ("Cc1cc(C)n(-c2ccc3nnc(-c4ccccc4)n3n2)n1", "HT29 colon", "growth", 115),
    ("COc1cc(CNC(=O)/C=C/c2ccc3c(c2)OCO3)ccc1OCc1cn(-c2cccc(C(F)(F)F)c2)nn1", "HT29 colon", "growth", 17.6),
    ("O=C1N/C(=N\\c2nccs2)S/C1=C\\C=C/c1ccccc1", "HT29 colon", "growth", 25.5),
    ("O=C(COc1ccc(NC(=O)Nc2ccc(Cl)c(Cl)c2)cc1)N=Nc1c(O)[nH]c2ccc(Cl)cc12", "HT29 colon", "growth", -30.1),
    ("O=c1oc2ccc(Br)cc2cc1C1=CSc2nc3sc4c(c3c(=O)n2N=C1)CCCC4", "HT29 colon", "growth", 108),
    ("CC(=O)Nc1ccc(-c2nc3cc(-c4ccc(O)cc4)ccc3n2C)cc1", "HT29 colon", "growth", 53.6),
]

Incoming: Dear colleague, I am looking for the recorded growth of the following compound: `CSc1ccc(NC(=O)c2ccc3nnn(/C(C#N)=C/c4ccccn4)c3c2)cc1`
Outgoing: -89.2

Incoming: Dear colleague, I am looking for the recorded growth of the following compound: C#CCOc1cc(N(CC)CC)ccc1C(C(=O)NC(C)(C)C)N(C(=O)C1CCc2cc(F)ccc2O1)c1ccc(F)c(Cl)c1 (centres undefined)
Outgoing: 79

Incoming: Dear colleague, I am looking for the recorded growth of the following compound: `O=C(/C=C/c1ccc(-c2ccccc2)cc1)c1nc2ccccc2n1Cc1ccc(F)cc1`
Outgoing: 9.19

Incoming: Dear colleague, I am looking for the recorded growth of the following compound: `CC(=O)Oc1ccccc1C(=O)[Se]C(=NC1CCCCC1)NC1CCCCC1`
Outgoing: -60.8

Incoming: Dear colleague, I am looking for the recorded growth of the following compound: `CN1CCN(c2ccc3c(c2)nc(NNC(=O)c2ncccn2)c2cccn23)CC1`
Outgoing: 11.2

Data provenance is PubChem BioAssay (NCI).
